assay notes: StAR promoter reporter inhibitors, counter-screen for LRH-1 inverse agonist project, cell-based, luminescence, high throughput (AID 651611)
reported conditions: StAR promoter luciferase reporter counterscreen, at 3.6 µM, active compounds read high
property measured: inhibition (%)

{"columns": ["compound", "property measured", "test value"],
 "data": [
  ["Cc1c(/C(O)=C2/C(=O)C(=O)N(CCN3CCOCC3)C2c2ccccn2)cnn1-c1ccccc1 (stereo unspecified)", "inhibition", 68.9],
  ["O=C1/C(=C\\c2ccccc2)CN(C(=O)CCN2CCCCC2)C/C1=C/c1ccccc1", "inhibition", 56.7],
  ["COCC(=O)OC1CCn2c1nc1c2C(=O)C(C)=C(NC(C)=O)C1=O (stereo unspecified)", "inhibition", 80.1],
  ["CCOc1ccc(-n2c(-c3ccccc3)c[n+]3c2CCCCC3)cc1", "inhibition", 29.9],
  ["CCn1c(C)cc(C(=O)COC(=O)c2ccccc2[N+](=O)[O-])c1C", "inhibition", 83.5],
  ["O=C(COc1ccc(C(=O)c2ccccc2)cc1)NCc1ccc(F)cc1", "inhibition", 19.9]
]}
